Test system: Mus musculus
protocol description: Compound was tested for its significant suppressive activity of delayed type hypersensitivity (DTH) with out inhibition of humoral immunity in mice by oral administration at dose of 25 mg/kg
Format: functional
Item-by-item account of inhibition in vivo at 25 mg/kg
Reply with the number and its unit after it.

Observe how each entry below is paired with its result.
Oc1ccc(-c2cn3c(n2)sc2ccccc23)cc1O ... 21.9%
CC(=O)Nc1ccc(-c2cn3c(n2)sc2ccccc23)cc1 ... -9.1%
Cc1ccc(-c2cn3c(n2)sc2ccccc23)cc1[S+](C)[O-] (centres undefined) ... 4.9%

Return the recorded inhibition in vivo at 25 mg/kg value; entry: O=CNc1cccc(-c2cn3c(n2)sc2ccccc23)c1
39.5%

---

Tested on: Mus musculus
protocol description: Compound was tested for its significant suppressive activity of delayed type hypersensitivity (DTH) with out inhibition of humoral immunity in mice by oral administration at dose of 25 mg/kg
Assay type: functional
Reported Increase in ear thickness is given for each of the following compounds.

// worked examples, Increase in ear thickness included
O=CNc1cccc(-c2cn3c(n2)sc2ccccc23)c1 ... 2.6 1/100mm
Oc1cccc(-c2cn3c(n2)sc2ccccc23)c1 ... 5.3 1/100mm
Cc1ccc(-c2cn3c(n2)sc2ccccc23)cc1[S+](C)[O-] (centres undefined) ... 3.9 1/100mm

Recall the reported Increase in ear thickness of Oc1ccc(-c2cn3c(n2)sc2ccccc23)cc1O on Mus musculus and write it down.
2.5 1/100mm
